- TARGET_DESC: proMMP9(67-444;ΔFnII) (SEQ ID NO:5) (Homo sapiens, UniProt P14780, DEL216-390)
- Construct: start methionine (N)
- Sequence (P14780 with tags, fused parts or gaps DEL216-390): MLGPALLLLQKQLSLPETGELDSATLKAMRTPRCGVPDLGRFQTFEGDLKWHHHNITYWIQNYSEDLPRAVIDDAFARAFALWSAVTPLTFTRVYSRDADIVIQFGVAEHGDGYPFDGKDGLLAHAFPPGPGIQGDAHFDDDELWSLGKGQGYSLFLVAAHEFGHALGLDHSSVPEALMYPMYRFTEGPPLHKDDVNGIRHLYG
- METHOD_SUMMARY: ThermoFluor binding assay with proMMP9(67-444;ΔFnII)
PROPERTY_MEASURED: Kd (µM)
Kindly answer with a numeric value in µM, unit omitted.

The examples below pair each entry with its known result.
COMPOUND | REPORTED_VALUE
Cc1nc2c(s1)-c1nc(Nc3cc(C(N)=O)ccc3OC(C)C)sc1CC2 [Example 12] | 3.8
CC(C)Oc1ccc(S(C)(=O)=O)cc1Nc1nc2c(ccc3c2ncn3C)s1 [Example 147] | 0.4
COc1ccc(S(N)(=O)=O)cc1Nc1nc2c(ccc3nc(C)n(C)c32)s1 [Example 123] | 4.7
COc1ccccc1Nc1nc2c(ccc3c2cnn3C)s1 [Example 94] | 9.2
COc1ccc(S(=O)(=O)N2CCOCC2)cc1Nc1nc2c(ccc3c2ncn3C)s1 [Example 81] | 1.2
CC(C)Oc1ccncc1Nc1nc2c(ccc3c2ncn3C)s1 [Example 157] | 0.018

I have this compound here, CC(C)Oc1ccc(C(N)=O)cc1Nc1nc2c(ccc3[nH]c(CO)nc32)s1 [Example 21] , and I need its recorded Kd.
0.33

Continue with CCn1c(C)nc2ccc3sc(Nc4ccccc4OC)nc3c21 [Example 120]
2.6

Continue with COc1ccc(S(C)(=O)=O)cc1Nc1nc2c(ccc3c2cnn3C)s1 [Example 92]
0.41

---

- TARGET_DESC: full-length proMMP9(1-707) activation by catalytic MMP3 (Homo sapiens, UniProt P14780, R574P)
- Construct: made in house; host or cells: proMMP9: HEK293 (secreted); MMP3: E. coli
- Sequence (P14780 20-707 R574P): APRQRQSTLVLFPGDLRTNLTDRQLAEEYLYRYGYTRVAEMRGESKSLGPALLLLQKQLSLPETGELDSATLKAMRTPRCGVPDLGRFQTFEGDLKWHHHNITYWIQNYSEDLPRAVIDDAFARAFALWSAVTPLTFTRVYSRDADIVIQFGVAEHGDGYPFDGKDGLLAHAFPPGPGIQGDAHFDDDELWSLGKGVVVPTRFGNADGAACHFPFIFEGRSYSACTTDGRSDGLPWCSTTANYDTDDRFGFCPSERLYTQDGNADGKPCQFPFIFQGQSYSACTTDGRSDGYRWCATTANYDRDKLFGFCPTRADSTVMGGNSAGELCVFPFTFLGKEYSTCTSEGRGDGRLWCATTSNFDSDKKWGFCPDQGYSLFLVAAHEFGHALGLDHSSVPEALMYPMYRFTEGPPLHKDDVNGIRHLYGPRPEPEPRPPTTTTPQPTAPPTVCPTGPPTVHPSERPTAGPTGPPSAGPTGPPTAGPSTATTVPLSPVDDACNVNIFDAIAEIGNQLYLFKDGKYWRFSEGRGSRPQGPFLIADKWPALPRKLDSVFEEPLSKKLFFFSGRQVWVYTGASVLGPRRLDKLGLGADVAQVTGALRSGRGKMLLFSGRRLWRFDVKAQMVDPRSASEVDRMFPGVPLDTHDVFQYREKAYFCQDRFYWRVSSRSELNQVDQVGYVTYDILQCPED
- METHOD_SUMMARY: proMMP9/MMP3 P126 Activation Assay
- Type: biochemical
Recorded IC50 by entry
Kindly answer with a numeric value in nM, unit omitted.

The examples below pair each entry with its known result.
MOLECULE | IC50, nM
COc1ccc(C#N)cc1Nc1nc2c(ccc3c2ncn3C)s1 [Example 67] | 100
Cc1nc2ccc3sc(Nc4cc(S(C)(=O)=O)ccc4OC(C)C)nc3c2n1CC(F)(F)F [Example 145] | 390
Cc1nc2ccc3sc(Nc4ccccc4OC(C)C)nc3c2s1 [Example 17] | 5800

I have this molecule here, CC(C)Oc1ccc(C#N)cc1Nc1nc2c(ccc3c2ncn3C)s1 [Example 160] , and I need its recorded IC50.
160

Continue with Cc1nc2ccc3sc(Nc4cc(S(N)(=O)=O)ccc4OC(C)C)nc3c2n1CC(F)(F)F [Example 136]
1100

---

- TARGET_DESC: proMMP13(1-268) (SEQ ID NO:7) (Homo sapiens, UniProt P45452)
- Construct: 6xHis (C); made in house; host or cells: HEK293 (transient, secreted)
- METHOD_SUMMARY: ThermoFluor binding assay with proMMP13(1-268)
- Method: The ThermoFluor® (TF) assay is a 384-well plate-based binding assay that measures thermal stability of proteins (Biomol Screen 2001, 6, 429-40; Biochemistry 2005, 44, 5258-66). The experiments were carried out using instruments available from Johnson & Johnson Pharmaceutical Research & Development, LLC. TF dye used in all experiments was […] (1,8-ANS) (Invitrogen: A-47). […]
Consider the cut-off 2000 nM. If the recorded Kd is strictly smaller, the label is true; if not, the label is false.

Reference set (6 entries):
COMPOUND | TARGET_DESC | ASSIGNED_LABEL
COc1ccc(S(C)(=O)=O)cc1Nc1nc2c(ccc3c2ncn3C)s1 [Example 52] | proMMP13(1-268) (SEQ ID NO:7) (Homo sapiens, UniProt P45452) | false
CCn1cnc2ccc3sc(Nc4cc(C(N)=O)ccc4OC(C)C)nc3c21 [Example 33] | proMMP13(1-268) (SEQ ID NO:7) (Homo sapiens, UniProt P45452) | true
COc1ccc(C(N)=O)cc1Nc1nc2c(s1)CCc1ncccc1-2 [Example 117] | proMMP13(1-268) (SEQ ID NO:7) (Homo sapiens, UniProt P45452) | false
COc1ccc(OC)c(Nc2nc3c(ccc4nc(N)sc43)s2)c1 [Example 8] | proMMP13(1-268) (SEQ ID NO:7) (Homo sapiens, UniProt P45452) | true
CC(C)Oc1ccccc1Nc1nc2c(ccc3c2ncn3C)s1 [Example 32] | proMMP13(1-268) (SEQ ID NO:7) (Homo sapiens, UniProt P45452) | false
COc1c(F)cc(F)cc1Nc1nc2c(ccc3c2ncn3C)s1 [Example 63] | proMMP13(1-268) (SEQ ID NO:7) (Homo sapiens, UniProt P45452) | false

Regarding CC(C)Oc1ccc(C(N)=O)cc1Nc1nc2c(ccc3[nH]c(Cl)nc32)s1 [Example 25] , kindly confirm whether its Kd is beneath 2000 nM.
false

Continue with COC(=O)c1ccc(OC)c(Nc2nc3c(ccc4c3ncn4C)s2)c1 [Example 61]
false

Continue with CC(C)Oc1ccc(C(N)=O)cc1Nc1nc2c(ccc3[nH]cnc32)s1 [Example 29]
true

Continue with Cc1nc2c(s1)-c1nc(Nc3cc(C(N)=O)ccc3OC(C)C)sc1CC2 [Example 12]
false

Continue with CC(C)Oc1ccc(C(N)=O)cc1Nc1nc2c(ccc3nc(N)sc32)s1 [Example 5]
true

Continue with Cn1cnc2c3nc(Nc4ccccc4OC(F)(F)F)sc3ccc21 [Example 58]
false

Continue with CC(C)Oc1ccc(S(N)(=O)=O)cc1Nc1nc2c(ccc3c2ncn3C)s1 [Example 28]
false

Continue with Cc1nc2ccc3sc(Nc4cc(C(=O)O)ccc4OC(C)C)nc3c2s1 [Example 24]
false

Continue with Cc1nc2ccc3sc(Nc4cc(C(N)=O)ccc4OC(C)C)nc3c2s1 [Example 13]
false

---

- TARGET_DESC: proMMP13(1-268) (SEQ ID NO:7) (Homo sapiens, UniProt P45452)
- Construct: 6xHis (C)
- METHOD_SUMMARY: ThermoFluor binding assay with proMMP13(1-268)
PROPERTY_MEASURED: pKd
Expect pKd as a plain number equal to -log10 of the molar concentration.

The examples below pair each entry with its known result.
COMPOUND | REPORTED_VALUE
COc1ccc(F)cc1Nc1nc2c(ccc3c2ncn3C)s1 [Example 57] | 5.55
CCS(=O)(=O)c1ccc(OC)c(Nc2nc3c(ccc4c3ncn4C)s2)c1 [Example 60] | 5.82
CC(C)Oc1ccc(C(=O)O)cc1Nc1nc2c(ccc3[nH]c(N)nc32)s1 [Example 10] | 6.15
Cc1nc2c(ccc3sc(Nc4cc(C(N)=O)ccc4OC(C)C)nc32)[nH]1 [Example 19] | 5.66
COc1ccc(S(=O)(=O)N(C)C)cc1Nc1nc2c(ccc3c2ncn3C)s1 [Example 55] | 5.68
CC(C)Oc1ccc(C(N)=O)cc1Nc1nc2c(ccc3[nH]c(N)nc32)s1 [Example 11] | 6.33
COc1ccc(C)cc1Nc1nc2c(ccc3c2ncn3C)s1 [Example 41] | 5.11
COc1ccccc1Nc1nc2c(s1)CCCc1nc(N)sc1-2 [Example 14] | 4.70

Please find the next compound below.
I have this compound here, CC(C)Oc1ccc(C(N)=O)cc1Nc1nc2c(ccc3c2ncn3C)s1 [Example 22] , and I need its recorded pKd.
6.09

---

- TARGET_DESC: proMMP13(1-268) (SEQ ID NO:7) (Homo sapiens, UniProt P45452)
- Construct: 6xHis (C)
- METHOD_SUMMARY: ThermoFluor binding assay with proMMP13(1-268)
Recorded pKd by entry
Expect pKd as a plain number equal to -log10 of the molar concentration.

COMPOUND | pKd
Cc1nc2c3nc(Nc4cc(C(N)=O)ccc4OC(C)C)sc3ccc2n1C [Example 27] | 6.28

I have this compound here, COc1ccc(S(N)(=O)=O)cc1Nc1nc2c(ccc3c2ncn3C)s1 [Example 54] , and I need its recorded pKd.
4.96

Continue with Nc1nc2c(ccc3sc(Nc4cccc(C(=O)O)c4)nc32)[nH]1 [Example 15]
4.48

Continue with CC(C)Oc1ccc(C(N)=O)cc1Nc1nc2c(ccc3c2cnn3C)s1 [Example 30]
6.03

Continue with CC(C)Oc1ccc(C(N)=O)cc1Nc1nc2c(ccc3[nH]c(CO)nc32)s1 [Example 21]
5.46

Continue with Cc1cc2ccc3sc(Nc4cc(C(N)=O)ccc4OC(C)C)nc3c2o1 [Example 38]
5.85

Continue with CC(C)Oc1ccc(F)cc1Nc1nc2c(ccc3c2ncn3C)s1 [Example 59]
5.49

Continue with CC(C)Oc1ccc(C(N)=O)cc1Nc1nc2c(ccc3[nH]c(N4CCN(C)CC4)nc32)s1 [Example 31]
5.64

Continue with CC(C)Oc1ccc(C(N)=O)cc1Nc1nc2c(s1)CCc1ccncc1-2 [Example 116]
5.06

Numbers sourced from patent US20120129811A1.
